- TGT: T1, human CD40-Fc protein (amino acid residue 21-193 of SEQ ID NO: 67 linked to N-terminus of amino acid residue … (human, biotin-labeled in the capture ELISA and in the benchmark blocking ELISA; unlabeled when coated in the ligand blocking ELISA)
- T1 construct: also called biotin-labeled human CD40-Fc; human CD40-Fc-biotin
- ASSAY: capture ELISA, biotin human CD40-Fc; mAb at 400 ng/mL
QUANTITY_MEASURED: absorbance at 450 nm (OD450)
Write the value in OD450 as a bare number.

Examples from the recorded data:
Exercise: Value lookup for absorbance at 450 nm; key = humanized antibody huC1C1-V2 (antibody, human IgG1, kappa, V domains shown, Human IgG1/kappa) VH: EVQLVESGGGVVQPGRSLRLSCAASGFTFSNYGMSWVRQAPGKGLEWVASISSGGDDTYYPDNVKGRFTISRDNSKNTLYLQMNSLRAEDTAVYYCTRAGGKAMDYWGQGTLVTVSS VL: EIVLTQSPATLSLSPGERATLSCRASQSIRDNLHWYQQKPGQSPRLLINYASQSISGIPARFSGSGSGTDFTLTISSLEPEDFAVYFCQQFNSWPLTFGQGTKVEIKR
Solution: 1.62

Exercise: Request: humanized antibody huC1C1-V3 (antibody, human IgG1, kappa, V domains shown, Human IgG1/kappa) VH: EVQLVESGGGVVQPGRSLRLSCAASGFTFSNYGMSWVRQAPGKGLEWVASISSGGDDTYYPDNVKGRCTISRDNSKNTLYLQMNSLRAEDTAVYYCTRAGGKAMDYWGQGTLVTVSS VL: EIVLTQSPATLSLSPGERATLSCRASQSIRDNLHWYQQKPGQAPRLLINYASQSISGIPARFSGSGSGTDFTLTISSLEPEDFAVYFCQQFNSWPLTFGQGTKVEIKR
Solution: 1.72

More entries:
Exercise: Could you tell me which absorbance at 450 nm is on file for humanized antibody huC1C1-V1 (antibody, human IgG1, kappa, V domains shown, Human IgG1/kappa; also called humanized C1C1-V1) VH: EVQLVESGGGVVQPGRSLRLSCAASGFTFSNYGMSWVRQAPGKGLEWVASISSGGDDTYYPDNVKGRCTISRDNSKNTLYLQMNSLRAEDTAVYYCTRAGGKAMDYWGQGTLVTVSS VL: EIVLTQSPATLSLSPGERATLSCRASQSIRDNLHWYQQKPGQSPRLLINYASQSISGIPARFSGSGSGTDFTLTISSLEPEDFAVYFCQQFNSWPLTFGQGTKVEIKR ?
Solution: 1.73
